Recorded values, source PubChem BioAssay (NCI).

growth: recorded values
Tested on: BT-549 breast
test_protocol: NCI-60 one-dose screen, 48 h (100 = growth as untreated, 0 = no growth, -100 = all killed)
reported_conditions: 10 µM unless noted
This is part of a sample that, as a whole, favours compounds with a hit. Of some 83,000 tested, about 20% had one in any assay.
outcome_measure: growth (%)

[[record]]
molecule = "COc1cc(-c2ccc(-c3ccc(C(=N)N)s3)s2)cc(OC)c1OC"
measurement_unit = "%"
reading = 61.7

[[record]]
molecule = "COc1cccc(C2C3=C(COC3=O)N(CCO)c3cc4c(cc32)OCCO4)c1 (configuration not stated)"
measurement_unit = "%"
reading = 14.5

[[record]]
molecule = "C=C(CNCCc1ccc(O)cc1)[C@@H]1CC[C@]2(CO)CC[C@]3(C)[C@H](CC[C@@H]4[C@@]5(C)CCC(N)C(C)(C)[C@@H]5CC[C@]43C)[C@@H]12 (some centres not stated)"
measurement_unit = "%"
reading = 59.7

[[record]]
molecule = "CCOC(=O)c1c(Nc2nc3ccccc3s2)sc2c1CCC(=O)C2"
measurement_unit = "%"
reading = 13.5

[[record]]
molecule = "O=C(OCC(O)(CO)C(=O)NC12CC3CC(CC(C3)C1)C2)c1ccc(Cl)cc1 (configuration not stated)"
measurement_unit = "%"
reading = 102

[[record]]
molecule = "CC1=NN(c2cccc(Cl)c2)C(=O)/C1=C\\C=C\\c1ccccc1"
measurement_unit = "%"
reading = 78.4

[[record]]
molecule = "CCOC(=O)c1c(NC(=S)Nc2ccc([N+](=O)[O-])cc2)sc2c1CCCCC2"
measurement_unit = "%"
reading = 86.3

[[record]]
molecule = "CCOC(=O)c1cc(C(=O)c2cc(OC)cc(OC)c2)n2ncccc12"
measurement_unit = "%"
reading = 18.4

[[record]]
molecule = "CCOC(=O)c1c(N)sc2cc(O)ccc12"
measurement_unit = "%"
reading = 93.3

[[record]]
molecule = "COc1cc(OCc2cccc(-c3ccccc3)c2C)cc(OC)c1CN1CCCCC1C(=O)NCCOCCOCCN (configuration not stated)"
measurement_unit = "%"
reading = 84.7

[[record]]
molecule = "Cc1cc2c(c(C)n1)CN(C(=O)Nc1nc(-c3cncs3)ccc1N)C2"
measurement_unit = "%"
reading = 105

[[record]]
molecule = "CC(C)=CCC[C@](C)(O)C1CC[C@]2(C)[C@@H]1CC[C@@H]1[C@@]3(C)CC/C(=N\\OCCC#N)C(C)(C)[C@@H]3CC[C@]12C (some centres not stated)"
measurement_unit = "%"
reading = 102

[[record]]
molecule = "O=C(CSc1nnc(-c2cc(-c3ccc(Cl)cc3)nc3ccccc23)n1-c1ccccc1)Nc1ccc(Cl)cc1"
measurement_unit = "%"
reading = 110

[[record]]
molecule = "CC1(C)CC(=O)C2=C(C1)OC(C(=O)c1ccccc1)C2c1cccc(Oc2ccccc2)c1 (configuration not stated)"
measurement_unit = "%"
reading = 40.1

[[record]]
molecule = "COc1ccc(C2=C/C(=C\\c3ccccc3O)C(=O)N2Cc2ccccc2)cc1"
measurement_unit = "%"
reading = 70.4

[[record]]
molecule = "N#Cc1c(-c2ccc(F)cc2)cc(-c2cccc(Cl)c2)[nH]c1=O"
measurement_unit = "%"
reading = 54.6

[[record]]
molecule = "COc1ccc(-c2cc(-c3ccc(Cl)cc3)c(C#N)c(=O)n2CCCCC(=O)NO)cc1"
measurement_unit = "%"
reading = 59.8

[[record]]
molecule = "COc1c(O[C@@H]2OC(CO)[C@H](O)[C@H](O)C2O)cc2oc3cc(O)c(CC=C(C)C)c(O)c3c(=O)c2c1CC=C(C)C (some centres not stated)"
measurement_unit = "%"
reading = 102

[[record]]
molecule = "Cc1ccc(C(=O)Nc2ccc(CN3CCN(C)CC3)c(C(F)(F)F)c2)cc1C#Cc1cnc(N)c2ccccc12"
measurement_unit = "%"
reading = 51.3

[[record]]
molecule = "Cc1[nH]c(C(=O)Nc2ccccc2OC2CCNC2)c(Cl)c1Cl (configuration not stated)"
measurement_unit = "%"
reading = 88

[[record]]
molecule = "O=C(O)c1nn(-c2ccc(Cl)cc2)nc1N1CCCC1"
measurement_unit = "%"
reading = 95.4

[[record]]
molecule = "Cc1ccc(-c2nn(CC(=O)N3CCOCC3)c(N)c2C#N)cc1"
measurement_unit = "%"
reading = 98.7

[[record]]
molecule = "Cc1ccc(NC(=O)c2ccc(Nc3ncnc4c3cnn4-c3cccc(F)c3)cc2)cc1"
measurement_unit = "%"
reading = 99.7

[[record]]
molecule = "O=C(CSc1nc(-c2ccccc2)cn1-c1ccc(Cl)cc1)c1ccc([N+](=O)[O-])cc1"
measurement_unit = "%"
reading = 86.8

[[record]]
molecule = "COC(=O)c1c(C)nc(C)c2c1C(=O)C(Br)=C(NCCN1CCOCC1)C2=O"
measurement_unit = "%"
reading = 101

[[record]]
molecule = "N/C(=N\\c1nc2ccccc2s1)NC(=O)Nc1ccccc1"
measurement_unit = "%"
reading = 49.5

[[record]]
molecule = "Cc1c(Cl)cccc1NC(=O)c1sc2nc3c(cc2c1N)CCCC3"
measurement_unit = "%"
reading = 52.6

[[record]]
molecule = "Cn1ncc(CC(=O)O)c1-n1nnc2cc(Cl)ccc2c1=O"
measurement_unit = "%"
reading = 102

[[record]]
molecule = "C#CCOc1ccc(C2=NN(C)C3N=C(Cl)c4ncn(C)c4N23)cc1OCC#C (configuration not stated)"
measurement_unit = "%"
reading = 99.6

[[record]]
molecule = "N#C/C(Sc1nc2sc3c(c2c(=O)n1Cc1ccccc1)CCCC3)=C1/SC=C(c2ccc(Cl)cc2)N1c1ccccc1"
measurement_unit = "%"
reading = 101

[[record]]
molecule = "CC(C)(C#N)c1cc(C(=O)Nc2cc(Nc3ncccc3-c3ncnc4nc[nH]c34)ccc2F)cc(C(F)(F)F)c1"
measurement_unit = "%"
reading = 71

[[record]]
molecule = "C=CC(=O)Nc1ccc2ncnc(Nc3cccc(NS(=O)(=O)CCC)c3Cl)c2c1"
measurement_unit = "%"
reading = 35.7

